Data provenance is patent US20250154145A1.

Please go through the items and note down their IC50.
- System: neutrophils
- assay.procedure: Neutrophil calcium flux assay (5-OXO-ETE-stimulated, Indo-1 fluorescence)
- Type: cell-based
- measurement.context: Neutrophil, 5-OXO-ETE-stimulated calcium flux

Value wanted: IC50 (neutrophils) of entry "Cn1c(CCCCCCC#CC2CC(F)(F)C2)c(C(=O)N2CC[C@H](c3noc(=O)[nH]3)C2)c2cc(Br)cnc21"
> 300 nM

What value of IC50 on neutrophils does C[C@H](CC(=O)O)CC(=O)c1c(CCCCCC(O)c2cccc(Cl)c2)n(C)c2ncc(Cl)cc12 (some centres unmarked) have?
< 100 nM

Param readout = IC50; param system = neutrophils; param query = "C[C@H](CC(=O)O)CC(=O)c1c(CCCOCCC#CC2CC(F)(F)C2)n(C)c2ccc(Cl)cc12" ; response: value
< 100 nM

Recall the recorded IC50 for "Cn1c(CCCCOCc2cccc(Cl)c2)c(C(=O)N2CC[C@H](C(=O)O)C2)c2cc(Cl)cnc21" with neutrophils and state it.
> 300 nM

Value wanted: IC50 (neutrophils) of entry "C[C@H](CC(=O)O)CC(=O)c1c(CCCCCNc2cccc(Cl)c2)n(C)c2ccc(Cl)cc12"
< 100 nM

Quick check: IC50 on neutrophils, item "Cn1c(CCCCOCc2cccc(Cl)c2)c(C(=O)N2CC[C@H](C(=O)O)C2)c2cc(C(F)(F)F)cnc21" ?
> 300 nM

Record lookup: for neutrophils, what IC50 belongs to "C[C@H](CC(=O)O)CC(=O)c1c(CCCCOCc2cccc(F)c2)n(C)c2ncc(C#N)cc12" ?
< 100 nM

Field: IC50 (neutrophils). Entry: "Cn1c(CCCCCCC#CC2CC(F)(F)C2)c(C(=O)N2CC[C@H](C(=O)O)C2)c2cc(Br)cnc21"
100 to 300 nM

# returns recorded IC50 (system: neutrophils) for "C[C@@H](CC(=O)O)CC(=O)c1c(CCCCOCc2cccc(C#N)c2)n(C)c2cnc(Cl)cc12"
> 300 nM

Request - read-out IC50 | tested on neutrophils | molecule CC(CC(=O)O)CC(=O)c1c(CCCCOCc2cccc(Cl)c2)n(C)c2ccc(C(F)(F)F)cc12 (centres unmarked)
< 100 nM

What value of IC50 on neutrophils does "C[C@H](CC(=O)N[C@@H](CCC(N)=O)C(=O)O)CC(=O)c1c(CCCCOCc2ccccc2)n(C)c2ncc(C#N)cc12" have?
> 300 nM

Observed IC50 on neutrophils for CC(=O)N(C)c1cccc(C(O)CCCCCc2c(C(=O)CC(C)CC(=O)O)c3cc(C#N)cnc3n2C)c1 (centres unmarked) , please.
> 300 nM

Record "CCCCCCc1c(C(=O)C[C@H](C)CC(=O)O)c2cc(Cl)ccc2n1C" : what is its IC50 with neutrophils?
100 to 300 nM

Look up IC50 with neutrophils for this molecule: "C[C@H](CC(=O)O)CC(=O)c1c(CCCCc2nc3cc(Cl)ccc3o2)n(C)c2ccc(Cl)cc12"
> 300 nM

Given the entry "C[C@H](CC(=O)O)CC(=O)c1c(CCCCCCC#CC2CC(F)(F)C2)n(C)c2ncc(Cl)cc12" , what IC50 was observed with neutrophils?
< 100 nM

Query for neutrophils: what IC50 does the record show for "Cn1c(CCCCCCc2cccc(Cl)c2)c(C(=O)N2CCC[C@@H](C(=O)O)C2)c2cc(Cl)ccc21" ?
> 300 nM

# returns recorded IC50 (system: neutrophils) for "Cn1cc(-c2ccccc2Cl)c(C(=O)N2CC[C@H](C(=O)O)C2)c1CCCCOCc1cccc(Cl)c1"
> 300 nM

Find IC50 (neutrophils) for the entry "C[C@H](CC(=O)O)CC(=O)c1c(CCCCCCC#CC(C)(C)C)n(C)c2ccc(Cl)cc12"
< 100 nM

Which measured IC50 belongs to CC(CC(=O)O)CC(=O)c1c2cc(C#N)cnc2n(C)c1[C@H]1CC[C@H](COCc2cccc(Cl)c2)CC1 (some centres unmarked) , tested on neutrophils?
> 300 nM

Any idea what IC50 came out for CC(CC(=O)O)CC(=O)c1c(CCCC(C)OCc2ccccc2)n(C)c2ncc(C#N)cc12 (centres unmarked) on neutrophils?
100 to 300 nM

What IC50 appears in the records for this molecule with neutrophils? "Cn1c(CCCCCCc2cccc(Cl)c2)c(C(=O)N2CC[C@H](c3nnn[nH]3)C2)c2cc(C#N)cnc21"
< 100 nM

Which IC50 is reported with neutrophils for this entry: "Cn1c(CCCCCCC#CC2CC(F)(F)C2)c(C(=O)N2CC[C@H](C(=O)NCC(=O)O)C2)c2cc(C#N)cnc21" ?
> 300 nM

Notebook entry, neutrophils assay: IC50 of CC(CC(=O)O)CC(=O)c1c2cc(C#N)cnc2n(C)c1[C@H]1CC[C@@H](COCc2cccc(Cl)c2)CC1 (some centres unmarked) = ?
> 300 nM

Given the entry Cn1c(CCCCCC(O)c2cccc(Cl)c2)c(C(=O)N2CC[C@H](C(=O)O)C2)c2cc(Cl)cnc21 (some centres unmarked) , what IC50 was observed with neutrophils?
> 300 nM

Request body: readout IC50, system neutrophils, query CC(CC(=O)NS(C)(=O)=O)CC(=O)c1c(CCCCOCc2ccccc2)n(C)c2ncc(C#N)cc12 (centres unmarked) . Return the value.
> 300 nM

Lab note: need IC50 with neutrophils for entry "C[C@@H](CC(=O)O)CC(=O)c1c(CCCCOCc2cccc(Cl)c2)n(C)c2cnccc12" , please look it up.
> 300 nM

Notebook: pull reported IC50 for neutrophils, entry "C[C@H](CC(=O)O)CC(=O)c1c(CCCCOCc2cccc(C#N)c2)n(C)c2ncc(C#N)cc12"
< 100 nM

GET /values?readout=IC50&system=neutrophils&item= CC(CC(=O)O)CC(=O)c1c(CCOCCNc2cccc(F)c2)n(C)c2ncc(C#N)cc12 (centres unmarked)
100 to 300 nM

For neutrophils, provide IC50 of "C[C@H](CC(=O)O)CC(=O)c1c(CCCCCNc2cccnc2)n(C)c2ncc(Cl)cc12" please.
> 300 nM

###

- target.or.system: Human OXER1 (Homo sapiens, UniProt Q8TDS5)
- Construct: host or cells: HEK293 cells, transient transfection
- Sequence (Q8TDS5 whole entry): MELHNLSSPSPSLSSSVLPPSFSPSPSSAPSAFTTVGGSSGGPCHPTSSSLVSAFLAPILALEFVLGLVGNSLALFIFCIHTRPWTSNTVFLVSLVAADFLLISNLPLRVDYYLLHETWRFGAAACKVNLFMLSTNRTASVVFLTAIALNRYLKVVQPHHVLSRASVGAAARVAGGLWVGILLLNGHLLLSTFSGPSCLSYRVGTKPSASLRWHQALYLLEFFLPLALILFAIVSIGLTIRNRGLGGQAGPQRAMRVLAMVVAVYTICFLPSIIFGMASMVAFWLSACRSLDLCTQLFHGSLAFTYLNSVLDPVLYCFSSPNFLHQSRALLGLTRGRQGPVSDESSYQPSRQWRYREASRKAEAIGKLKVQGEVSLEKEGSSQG
- assay.procedure: BRET early endosome trafficking assay (OXER1-Rluc8 / rGFP-FYVE in HEK293 cells)
- Assay type: cell-based
- measurement.context: HEK293 cells transfected with OXER1-Rluc8 and rGFP-FYVE, 5-oxo-ETE agonist
For each record, write down the corresponding IC50.

Reported IC50 for Human OXER1 (Homo sapiens, UniProt Q8TDS5), given "C[C@H](CC(=O)O)CC(=O)c1c(CCCCOCc2cccc(Cl)c2)n(C)c2ccc(C#N)cc12" ?
< 100 nM

IC50 of "C[C@H](CC(=O)O)CC(=O)c1c(CCCCCCc2ccc(O)c(Cl)c2)n(C)c2ccc(Cl)cc12" on Human OXER1 (Homo sapiens, UniProt Q8TDS5)?
< 100 nM

Recall the recorded IC50 for "C[C@H](CC(=O)O)CC(=O)c1c(CCCCOCc2ccccc2)n(C)c2ncc(C#N)cc12" with Human OXER1 (Homo sapiens, UniProt Q8TDS5) and state it.
100 to 300 nM

// map "C[C@@H](CC(=O)O)CC(=O)c1c([C@H](O)CCCCCc2cccc(Cl)c2)n(C)c2ccc(Cl)cc12" to recorded IC50 (system: Human OXER1 (Homo sapiens, UniProt Q8TDS5))
> 300 nM

Write down the reported IC50 of "C[C@H](CC(=O)NO)CC(=O)c1c(CCCCCCc2cccc(Cl)c2)n(C)c2ccc(Cl)cc12" , test system: Human OXER1 (Homo sapiens, UniProt Q8TDS5).
> 300 nM

For Human OXER1 (Homo sapiens, UniProt Q8TDS5), provide IC50 of "C[C@H](CC(=O)NS(C)(=O)=O)CC(=O)c1c(CCCCCCc2cccc(Cl)c2)n(C)c2ccc(Cl)cc12" please.
100 to 300 nM

Recorded IC50 for "C[C@@H](CC(=O)O)CC(=O)c1c(CCCCCCc2cccc(Cl)c2)n(C)c2ccc(Cl)cc12" with Human OXER1 (Homo sapiens, UniProt Q8TDS5), please?
100 to 300 nM

###

- System: neutrophils
- assay.procedure: Neutrophil calcium flux assay (5-OXO-ETE-stimulated, Indo-1 fluorescence)
- Assay type: cell-based
- measurement.context: Neutrophil, 5-OXO-ETE-stimulated calcium flux
pIC50: −log10 of the molar value.
measured.metric: pIC50

I would be grateful if you could share the reported pIC50 for "[2H]C([2H])([2H])n1c(CCCCOCc2cccc(Cl)c2)c(C(=O)C[C@H](C)CC(=O)O)c2cc(C#N)ccc21" .
> 7.00

Using the record for "C[C@H](CC(=O)O)CC(=O)c1c(CCCCCCc2cccnc2)n(C)c2ccc(Cl)cc12" , report its pIC50.
> 7.00

Query (compound): CC(CC(=O)O)CC(=O)c1c2cc(C#N)cnc2n(C)c1[C@H]1CC[C@@H](OCc2cccc(Cl)c2)CC1 (some centres unmarked) ; field requested: pIC50
< 6.52

# get_value(readout='pIC50', item= COc1cccc(COCCCCc2c(C(=O)CC(C)CC(=O)O)c3cc(Cl)cnc3n2C)n1 (centres unmarked) )
< 6.52

Please report the recorded pIC50 for "C[C@H](CC(=O)O)CC(=O)c1c(CCCCOCc2cccc(OC(F)(F)F)c2)n(C)c2ncc(C#N)cc12" .
> 7.00

GET /values?readout=pIC50&item= CC(CC(=O)O)CC(=O)c1c(CCCCOCc2ccc(F)cc2)n(C)c2ncc(C#N)cc12 (centres unmarked)
> 7.00

Tell me the measured pIC50 of "CC(C)C#CCCCCCc1c(C(=O)C[C@H](C)CC(=O)O)c2cc(Cl)ccc2n1C" , please.
< 6.52

Request the reported pIC50 associated with CC(CC(=O)O)CC(=O)c1c(CCCCCCC=C=CC(F)(F)F)n(C)c2ccc(Cl)cc12 (centres unmarked)
< 6.52

Recorded pIC50 of CC(CNC(=O)c1c(CCCCOCc2cccc(Cl)c2)n(C)c2ncc(C#N)cc12)C(=O)O (centres unmarked) , please.
< 6.52

Endpoint output: pIC50 of CC(CC(=O)O)CC(=O)c1c(CCCCOCc2cc(F)cc(F)c2)n(C)c2ncc(C#N)cc12 (centres unmarked) . Value?
6.52 to 7.00

Tell me the measured pIC50 of "C[C@@H]1[C@@H](C(=O)O)CCN1C(=O)c1c(CCCCCCC#CC2CC(F)(F)C2)n(C)c2ncc(C#N)cc12" , please.
> 7.00

Fill in: pIC50 of "C[C@H](CC(=O)O)CC(=O)c1c(CCCCOCc2cccc(Cl)c2)n(C)c2ncc(Cl)cc12" is ___
> 7.00

Return reported pIC50; argument: "Cn1c(COCCCCC#CC2CC(F)(F)C2)c(C(=O)N2CC[C@H](C(=O)O)C2)c2cc(Cl)ccc21"
< 6.52

Requested field: pIC50. Item: "C[C@H](CC(=O)O)CC(=O)c1c(CCCCOCc2ccc(F)cc2)n(C)c2ncc(Cl)cc12"
< 6.52

pIC50 for "C[C@H](CC(=O)O)CC(=O)c1c(CCOCCNc2cccc(F)c2)n(C)c2ncc(C#N)cc12" ?
6.52 to 7.00

Name the reported pIC50 value associated with the compound "C[C@H](CC(=O)O)CC(=O)c1c(CCCCCCc2ccccc2)n(C)c2ccc(Cl)cc12"
> 7.00

What value of measured pIC50 is listed for CC(CC(=O)O)CC(=O)c1c(CCCCOCc2cc(C#N)ccn2)n(C)c2ncc(Cl)cc12 (centres unmarked) ?
< 6.52

Give the measured pIC50 of "C[C@@H](CC(=O)O)CC(=O)c1c(CCCCOCc2cccc(C#N)c2)n(C)c2cnccc12" .
< 6.52

Recorded pIC50 for CC(CC(=O)O)CC(=O)c1c(CCCCCCC#CC2COC2)n(C)c2ccc(Cl)cc12 (centres unmarked) , please?
> 7.00

For the compound "C[C@H](CC(=O)O)CC(=O)c1c(CCCCOCC23CC(C#N)(C2)C3)n(C)c2ccc(Cl)cc12" , what pIC50 is on record?
6.52 to 7.00

Consider the compound shown here: "C[C@H](CC(=O)O)CC(=O)c1c(CCCCOCc2cccc(C#N)c2)n(C)c2c(F)cc(Cl)cc12" What is its recorded pIC50?
< 6.52

Report pIC50 for CC(CC(=O)O)CC(=O)c1c(CCCCCCC#CC2CC(F)(F)C2)n(C)c2ncc(C#N)cc12 (centres unmarked) please.
> 7.00

Find the recorded pIC50 belonging to "C[C@H](CC(=O)O)CC(=O)c1c(CCCCCC(=O)c2cccc(Cl)c2)n(C)c2ccc(Cl)cc12" and report it.
6.52 to 7.00

Give its pIC50 value. Item: CC(CC(=O)O)CC(=O)c1c(CCCCCCC#CC2CC(F)(F)C2)n(C)c2ccc(Cl)cc12 (centres unmarked)
> 7.00

Entry "C[C@H](CC(=O)O)CC(=O)c1c(CCCCOCC#CC2CC(F)(F)C2)n(C)c2ccc(Cl)cc12" : reported pIC50 = ?
> 7.00

Sample "Cn1c(CCCCOCc2cccc(Cl)c2)c(C(=O)N2CC[C@H](c3nnn[nH]3)C2)c2cc(C#N)cnc21" — what was its pIC50?
6.52 to 7.00

Could you share which pIC50 value was measured for "Cn1c(CCCCCCc2cccc(Cl)c2)c(C(=O)N2CC[C@H](c3nnn[nH]3)C2)c2cc(Cl)cnc21" ?
> 7.00

Returns the measured pIC50 for the input compound. Input: "Cn1c(CCCCCCc2cccc(Cl)c2)c(C(=O)N2CCC[C@H]2CC(=O)O)c2cc(Cl)ccc21"
< 6.52

If you can, please state the reported pIC50 value of CC(CC(=O)O)CC(=O)c1c(C2CCN(CCc3cccc(Cl)c3)CC2)n(C)c2ncc(C#N)cc12 (centres unmarked) .
< 6.52
